System: PRC2-mediated histone H3 methylation in Pfeiffer cells (EZH2 A677G)
PROTOCOL_SUMMARY: Tri-Methyl Histone H3 (Lys 27) sandwich ELISA in Pfeiffer cells
Assay type: cell-based
CONDITION: Homo sapiens, 96 hours incubation, H3K27me3 ELISA, read-out: IC50 (nM), Inhibition of EZH2-mediated Histone H3 Trimethylation
PROPERTY: IC50

{"GIVEN_SMILES": "CCNCc1ccc(-c2cnc(NCc3c(F)ccc4c3CCO4)c3cnncc23)c(C)c1", "IC50": "≤ 100 nM"}
{"GIVEN_SMILES": "Cc1cc(S(C)(=O)=O)ccc1-c1cnc(NCc2c(F)ccc3c2CCO3)c2cnncc12", "IC50": "≤ 100 nM"}
{"GIVEN_SMILES": "Cc1cc(CN(C)C)ccc1-c1cnc(NCc2c(F)ccc3c2CCO3)c2c[nH]c(=O)cc12", "IC50": "100 to 500 nM"}
{"GIVEN_SMILES": "Cc1cc(-c2cnc(NCc3c(F)ccc4c3CCO4)c3cnncc23)ccn1", "IC50": "≤ 100 nM"}
{"GIVEN_SMILES": "Cc1cc(-c2cnc(NCc3c(F)ccc4c3CCO4)c3c[nH]c(=O)cc23)n(C)n1", "IC50": "≤ 100 nM"}

Given the molecule Cc1cc(-c2cnc(NCc3c(F)ccc4c3CCO4)c3cnc(N)cc23)n(C)n1 , what is its reported IC50?
> 500 nM

Which IC50 is reported for this molecule? Cc1cc(-c2cnc(NCc3c(F)ccc4c3CCO4)c3nc[nH]c(=O)c23)n(C)n1
> 500 nM

Fill in: IC50 of CNCc1ccc(-c2cnc(NCc3c(F)ccc4c3CCO4)c3cnncc23)cc1 is ___
100 to 500 nM

Fill blank: measured IC50 of the molecule CNCc1ccc(-c2cnc(NCc3c(F)ccc4c3CCO4)c3cnncc23)c(C)c1 is ____.
≤ 100 nM

Requested read-out: IC50. Entry: CN(C)Cc1ccc(-c2cnc(NCc3cccc4c3CCO4)c3cncnc23)cc1
100 to 500 nM

----------
TARGET_UNDER_TEST: purified human, His-tagged PRC2 complex (Homo sapiens (Human))
PROTOCOL_SUMMARY: Hot Spot HMT assay, inhibition of PRC2 enzymatic activity
CONDITION: 10 nM PRC2 complex, 0.05 mg/ml core histone H3, 1 μM 3H-SAM, 1 hr at 30° C.; read-out: IC50, Inhibition of PRC2-mediated Enzymatic Activity
pIC50: −log10 of the molar value.
PROPERTY: pIC50

Worked set:
{"COMPOUND": "Cc1cc(S(C)(=O)=O)ccc1-c1cnc(NCc2c(F)ccc3c2CCO3)c2cnncc12 [Example 3]", "EXPERIMENTAL_VALUE": "> 7.00"}
{"COMPOUND": "CN(C)Cc1ccc(-c2cnc(NCc3cccc4c3CCO4)c3cncnc23)cc1 [Example 25]", "EXPERIMENTAL_VALUE": "< 6.60"}
{"COMPOUND": "Cn1nc(C#N)cc1-c1cnc(NCc2c(F)ccc3c2CCO3)c2c[nH]c(=O)cc12 [Example 48]", "EXPERIMENTAL_VALUE": "> 7.00"}

Now for another entry.
Item under review: Cc1cc(-c2cnc(NCc3c(F)ccc4c3CCO4)c3cnc(N)cc23)n(C)n1 [Example 50] . Reported pIC50?
< 6.60

----------
Each record here notes measured pIC50.
TARGET_UNDER_TEST: purified human, His-tagged PRC2 complex (Homo sapiens (Human))
PROTOCOL_SUMMARY: Hot Spot HMT assay, inhibition of PRC2 enzymatic activity
CONDITION: 10 nM PRC2 complex, 0.05 mg/ml core histone H3, 1 μM 3H-SAM, 1 hr at 30° C.; read-out: IC50, Inhibition of PRC2-mediated Enzymatic Activity
pIC50: −log10 of the molar value.

Would you please look over these solved cases?
{"GIVEN_SMILES": "Cc1cc(C(=O)N(C)C)ncc1-c1cnc(NCc2c(F)ccc3c2CCO3)c2cnncc12", "TARGET_UNDER_TEST": "purified human, His-tagged PRC2 complex (Homo sapiens (Human))", "pIC50": "6.60 to 7.00"}
{"GIVEN_SMILES": "Cc1cc(-c2cnc(NCc3c(F)ccc4c3CCO4)c3ccc(=O)[nH]c23)n(C)n1", "TARGET_UNDER_TEST": "purified human, His-tagged PRC2 complex (Homo sapiens (Human))", "pIC50": "< 6.60"}
{"GIVEN_SMILES": "CN(C)C(=O)c1ccc(-c2cnc(NCc3c(F)ccc4c3CCO4)c3cnncc23)cc1", "TARGET_UNDER_TEST": "purified human, His-tagged PRC2 complex (Homo sapiens (Human))", "pIC50": "6.60 to 7.00"}
{"GIVEN_SMILES": "CSc1ncc2c(NCc3c(F)ccc4c3CCO4)ncc(-c3cc(C)nn3C)c2n1", "TARGET_UNDER_TEST": "purified human, His-tagged PRC2 complex (Homo sapiens (Human))", "pIC50": "> 7.00"}
{"GIVEN_SMILES": "Cc1cc(CN(C)C)ccc1-c1cnc(NCc2c(F)ccc3c2CCO3)c2cnncc12", "TARGET_UNDER_TEST": "purified human, His-tagged PRC2 complex (Homo sapiens (Human))", "pIC50": "> 7.00"}

Form field: reported pIC50 of Cc1cc(-c2cnc(NCc3c(F)ccc4c3CCO4)c3cnc(OC(C)C)cc23)n(C)n1
< 6.60

----------
TARGET_UNDER_TEST: purified human, His-tagged PRC2 complex (Homo sapiens (Human), UniProt O75530)
Sequence (Q15910 whole entry): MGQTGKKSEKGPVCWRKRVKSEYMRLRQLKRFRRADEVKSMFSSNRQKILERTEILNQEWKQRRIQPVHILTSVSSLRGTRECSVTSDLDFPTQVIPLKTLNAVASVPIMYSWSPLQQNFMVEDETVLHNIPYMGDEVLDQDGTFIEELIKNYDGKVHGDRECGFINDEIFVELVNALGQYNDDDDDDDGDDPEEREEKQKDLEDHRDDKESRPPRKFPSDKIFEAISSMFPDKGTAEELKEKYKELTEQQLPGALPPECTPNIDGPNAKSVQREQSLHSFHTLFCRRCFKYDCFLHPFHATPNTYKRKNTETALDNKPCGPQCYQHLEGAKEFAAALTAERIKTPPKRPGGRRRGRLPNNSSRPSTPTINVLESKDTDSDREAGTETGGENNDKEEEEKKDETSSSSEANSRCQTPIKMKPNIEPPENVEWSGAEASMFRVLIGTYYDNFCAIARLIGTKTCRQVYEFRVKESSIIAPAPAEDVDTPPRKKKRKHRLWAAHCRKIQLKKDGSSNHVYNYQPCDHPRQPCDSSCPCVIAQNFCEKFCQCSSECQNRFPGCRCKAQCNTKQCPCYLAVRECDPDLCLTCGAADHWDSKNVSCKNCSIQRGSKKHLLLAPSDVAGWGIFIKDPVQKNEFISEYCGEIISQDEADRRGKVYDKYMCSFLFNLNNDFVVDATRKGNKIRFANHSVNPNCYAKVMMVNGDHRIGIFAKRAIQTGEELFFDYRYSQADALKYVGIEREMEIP
Sequence (O75530 whole entry): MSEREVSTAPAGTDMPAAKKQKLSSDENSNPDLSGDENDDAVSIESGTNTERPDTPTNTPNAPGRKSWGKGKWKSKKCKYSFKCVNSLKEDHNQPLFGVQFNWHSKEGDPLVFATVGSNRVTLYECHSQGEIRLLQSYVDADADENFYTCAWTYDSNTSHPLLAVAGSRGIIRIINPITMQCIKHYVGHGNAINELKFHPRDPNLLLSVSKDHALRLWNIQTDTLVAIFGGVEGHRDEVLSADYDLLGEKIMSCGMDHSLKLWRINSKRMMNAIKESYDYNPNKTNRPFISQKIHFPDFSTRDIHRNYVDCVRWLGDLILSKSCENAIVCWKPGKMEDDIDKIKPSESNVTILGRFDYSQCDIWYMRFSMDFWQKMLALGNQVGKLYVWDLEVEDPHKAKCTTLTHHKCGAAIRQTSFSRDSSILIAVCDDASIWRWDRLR
Sequence (Q15022 whole entry partner): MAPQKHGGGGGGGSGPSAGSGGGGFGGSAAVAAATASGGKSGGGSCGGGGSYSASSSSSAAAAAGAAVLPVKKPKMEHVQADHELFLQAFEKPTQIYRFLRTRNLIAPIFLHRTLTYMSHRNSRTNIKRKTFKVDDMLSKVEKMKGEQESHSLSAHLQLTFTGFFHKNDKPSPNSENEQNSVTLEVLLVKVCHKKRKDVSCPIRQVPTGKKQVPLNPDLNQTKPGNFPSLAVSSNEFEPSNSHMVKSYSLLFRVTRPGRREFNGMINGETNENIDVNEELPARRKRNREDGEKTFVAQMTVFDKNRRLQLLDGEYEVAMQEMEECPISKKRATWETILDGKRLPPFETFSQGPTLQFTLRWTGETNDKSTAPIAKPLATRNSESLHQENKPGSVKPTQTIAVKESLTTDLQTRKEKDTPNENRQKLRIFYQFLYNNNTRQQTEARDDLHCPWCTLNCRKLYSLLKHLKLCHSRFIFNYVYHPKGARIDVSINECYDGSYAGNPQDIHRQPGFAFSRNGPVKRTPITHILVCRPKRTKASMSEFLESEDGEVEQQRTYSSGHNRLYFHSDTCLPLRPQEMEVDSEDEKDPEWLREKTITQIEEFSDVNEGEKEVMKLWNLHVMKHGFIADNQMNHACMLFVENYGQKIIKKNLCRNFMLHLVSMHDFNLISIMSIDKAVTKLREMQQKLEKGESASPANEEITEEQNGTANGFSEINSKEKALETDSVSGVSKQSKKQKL
Sequence (Q6ZN18 whole entry partner): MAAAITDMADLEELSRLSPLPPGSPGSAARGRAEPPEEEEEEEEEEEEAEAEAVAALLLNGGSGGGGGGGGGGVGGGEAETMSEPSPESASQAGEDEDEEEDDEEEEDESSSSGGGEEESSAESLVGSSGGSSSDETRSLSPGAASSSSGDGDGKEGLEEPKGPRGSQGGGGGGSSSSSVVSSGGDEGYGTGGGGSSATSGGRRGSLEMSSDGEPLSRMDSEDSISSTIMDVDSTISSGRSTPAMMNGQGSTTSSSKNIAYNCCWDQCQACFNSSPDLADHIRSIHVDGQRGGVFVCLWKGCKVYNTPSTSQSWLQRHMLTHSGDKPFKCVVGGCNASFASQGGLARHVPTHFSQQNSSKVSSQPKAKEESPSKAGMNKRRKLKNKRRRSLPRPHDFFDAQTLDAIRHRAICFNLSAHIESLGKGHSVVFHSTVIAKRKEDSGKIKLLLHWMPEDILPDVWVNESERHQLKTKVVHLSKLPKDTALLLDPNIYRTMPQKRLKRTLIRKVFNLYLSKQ
Sequence (Q09028 whole entry partner): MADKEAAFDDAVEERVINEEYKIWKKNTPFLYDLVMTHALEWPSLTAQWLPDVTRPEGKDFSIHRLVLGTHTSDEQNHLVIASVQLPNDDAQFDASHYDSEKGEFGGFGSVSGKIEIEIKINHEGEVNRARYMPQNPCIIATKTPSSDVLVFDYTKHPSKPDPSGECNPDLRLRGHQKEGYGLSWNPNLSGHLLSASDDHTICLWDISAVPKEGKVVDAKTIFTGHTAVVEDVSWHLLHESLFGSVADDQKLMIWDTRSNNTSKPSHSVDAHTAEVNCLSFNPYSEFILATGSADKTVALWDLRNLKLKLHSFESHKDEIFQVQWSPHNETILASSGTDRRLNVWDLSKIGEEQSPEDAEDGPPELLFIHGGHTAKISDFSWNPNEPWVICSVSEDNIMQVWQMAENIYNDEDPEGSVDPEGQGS
PROTOCOL_SUMMARY: Hot Spot HMT assay, inhibition of PRC2 enzymatic activity
CONDITION: 10 nM PRC2 complex, 0.05 mg/ml core histone H3, 1 μM 3H-SAM, 1 hr at 30° C.; read-out: IC50, Inhibition of PRC2-mediated Enzymatic Activity
Procedure: Ten-point dose-response curves for compounds of the present invention were determined using a Hot Spot HMT assay (Reaction Biology Corp; see Horiuchi et al., Assay Drug Dev Technol. (2013) 4: 227-236 doi: 10.1089/adt.2012.480). […] In this assay, the transfer of the tritiated methyl group from radiolabeled S-adenosyl methionine (SAM) to purified core histone protein by EZH2 is quantitated after filtration to determine the activity of the core PRC2 complex in the presence and absence of compound. […]
pIC50: −log10 of the molar value.
PROPERTY: pIC50

Known pIC50 results, listed for orientation:
{"GIVEN_SMILES": "Cc1cc(-c2cnc(NCc3c(F)ccc4c3CCO4)c3cc[nH]c(=O)c23)n(C)n1", "EXPERIMENTAL_VALUE": "< 6.60"}
{"GIVEN_SMILES": "CN(C)C(=O)c1cc(-c2cnc(NCc3c(F)ccc4c3CCO4)c3c[nH]c(=O)cc23)n(C)n1", "EXPERIMENTAL_VALUE": "> 7.00"}
{"GIVEN_SMILES": "Cc1cc(CN(C)C)ccc1-c1cnc(NCc2c(F)ccc3c2CCO3)c2cnccc12", "EXPERIMENTAL_VALUE": "< 6.60"}
{"GIVEN_SMILES": "Cc1cc(-c2cnc(NCc3c(F)ccc4c3CCO4)c3cccnc23)n(C)n1", "EXPERIMENTAL_VALUE": "< 6.60"}

// returns reported pIC50 for input COc1nccc2c(NCc3c(F)ccc4c3CCO4)ncc(-c3cc(C)nn3C)c12
< 6.60

----------
Test system: PRC2-mediated histone H3 methylation in Pfeiffer cells (EZH2 A677G)
PROTOCOL_SUMMARY: Tri-Methyl Histone H3 (Lys 27) sandwich ELISA in Pfeiffer cells
Assay type: cell-based
CONDITION: Homo sapiens, 96 hours incubation, H3K27me3 ELISA, read-out: IC50 (nM), Inhibition of EZH2-mediated Histone H3 Trimethylation
PROPERTY: IC50

Past entries and their recorded results:
{"MOLECULE": "Cc1cc(-c2cnc(NCc3c(F)ccc4c3CCO4)c3ccncc23)n(C)n1 [Example 56]", "IC50": "100 to 500 nM"}
{"MOLECULE": "CN(C)CCn1nccc1-c1cnc(NCc2c(F)ccc3c2CCO3)c2cnncc12 [Example 18]", "IC50": "100 to 500 nM"}
{"MOLECULE": "COc1ncc2c(NCc3c(F)ccc4c3CCO4)ncc(-c3cc(C)nn3C)c2n1 [Example 28]", "IC50": "100 to 500 nM"}

# IC50 lookup, item Cc1cc(-c2cnc(NCc3c(F)ccc4c3CCO4)c3cnc(OC(C)C)cc23)n(C)n1 [Example 43]
> 500 nM

Request the reported IC50 associated with COc1ncnc2c(NCc3c(F)ccc4c3CCO4)ncc(-c3cc(C)nn3C)c12 [Example 57]
> 500 nM

Which IC50 reading was recorded for the molecule Cn1nc(C#N)cc1-c1cnc(NCc2c(F)ccc3c2CCO3)c2cnncc12 [Example 16] ?
≤ 100 nM

Form field: reported IC50 of Cc1cc(S(C)(=O)=O)ccc1-c1cnc(NCc2c(F)ccc3c2CCO3)c2c[nH]c(=O)cc12 [Example 40]
100 to 500 nM

What value of IC50 has been recorded for this entry: CN(C)Cc1ccc(-c2cnc(NCc3c(F)ccc4c3CCO4)c3cncnc23)cc1 [Example 23]
100 to 500 nM

# get_value(readout='IC50', item= COc1cc2c(-c3cc(C)nn3C)cnc(NCc3c(F)ccc4c3CCO4)c2cn1 [Example 34] )
> 500 nM

Tell me the measured IC50 of CN(C)S(=O)(=O)c1ccc(-c2cnc(NCc3c(F)ccc4c3CCO4)c3cnncc23)cc1 [Example 8] , please.
≤ 100 nM

Sourced from patent US12421228B2
